Numbers sourced from patent US12662487B2.

- Assay system: Nurr1 (Mus musculus)
- Construct: N2A cells obtained from ATCC were stably transfected with NBRE8x (50-AAGGTCA-30) in tandem coupled with luciferase reporter gene
- Sequence (Q06219 whole entry): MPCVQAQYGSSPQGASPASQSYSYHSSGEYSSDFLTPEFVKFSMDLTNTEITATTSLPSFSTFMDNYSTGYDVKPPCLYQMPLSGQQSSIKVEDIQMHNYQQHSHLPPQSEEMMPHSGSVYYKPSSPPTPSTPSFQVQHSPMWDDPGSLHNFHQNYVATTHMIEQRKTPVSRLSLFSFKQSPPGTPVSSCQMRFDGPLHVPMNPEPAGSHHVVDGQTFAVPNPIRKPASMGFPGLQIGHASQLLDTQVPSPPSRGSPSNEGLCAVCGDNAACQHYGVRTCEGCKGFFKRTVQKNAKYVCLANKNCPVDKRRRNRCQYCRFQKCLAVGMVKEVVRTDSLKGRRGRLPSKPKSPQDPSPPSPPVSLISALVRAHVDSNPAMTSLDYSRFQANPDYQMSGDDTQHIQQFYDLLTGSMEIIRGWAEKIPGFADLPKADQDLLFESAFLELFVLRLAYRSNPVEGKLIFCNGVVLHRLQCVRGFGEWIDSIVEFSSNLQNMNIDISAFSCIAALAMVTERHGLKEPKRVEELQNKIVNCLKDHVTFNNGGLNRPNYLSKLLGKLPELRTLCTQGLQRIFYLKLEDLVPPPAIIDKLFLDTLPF
- Assay overview: Activity on neuroblastoma cell lines - Nurr1 modulation (NBRE8x luciferase reporter in N2A cells)
- Test conditions: N2A cells stably transfected with NBRE8x luciferase reporter; 24 hours with compound
pEC50: −log10 of the molar value.
Measured quantity: pEC50

[I] Cn1c(-c2cccc(F)c2)cn2nc(-c3ccc(F)cc3)nc12
[II] Cn1c(-c2ccc3cc[nH]c3c2)cn2nc(-c3ccc(F)cc3)nc12
Exercise: Between the entries labeled I and II , whose measured pEC50 is lower? Return value: the label identifying the chosen record.
Solution: I
(I: 7.20, II: 9.15)

---

- Assay system: Nur77 (Homo sapiens)
- Construct: the Pfr-Luc (Gal4-responsive luciferase) reporter sits in the same cells
- Sequence (P22736 360-598 limits assumed): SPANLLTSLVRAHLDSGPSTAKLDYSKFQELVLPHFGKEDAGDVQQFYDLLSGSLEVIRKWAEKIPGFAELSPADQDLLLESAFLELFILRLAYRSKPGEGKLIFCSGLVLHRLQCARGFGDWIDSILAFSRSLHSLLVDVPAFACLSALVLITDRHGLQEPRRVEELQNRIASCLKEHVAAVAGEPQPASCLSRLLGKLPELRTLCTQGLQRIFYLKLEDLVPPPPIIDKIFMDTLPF
- Assay overview: Activity on HEK - Nur77 modulation (Gal4-DBD luciferase reporter in stable HEK293 cells)
- Assay type: cell-based
- Test conditions: HEK293 cells expressing Gal4-DBD-hNur77 and Pfr-Luc; 24 hours with compound; luminescence
Measured quantity: IC50 (nM)

[a] Cn1c(-c2ccc3cc[nH]c3c2)cn2nc(-c3ccc(F)cc3)nc12
[b] Cn1c(-c2ccccc2)cn2nc(-c3cccc(CO)c3)nc12
Exercise: Between the entries labeled a and b , whose measured IC50 is lower? Return value: the label identifying the chosen record.
Solution: a
(a: 0.03 nM, b: 0.9 nM)
